Dear all, this message contains IC50 results, target or system JAK3 (h) (Homo sapiens, UniProt P52333).
Give just the numeric value; nM need not be written.

[
  {
    "Compound": "Cc1c2ccc(Nc3ncc(Cl)c(NC4CC5CN(C(=O)CC#N)CC5C4)n3)cc2nn1C (centres unmarked) [Ex. 4]",
    "Readout kind": "IC50",
    "U": "nM",
    "Test value": 535
  }
]

// switching to the query compound
stdin: So what does the record say about IC50 for CC(=O)N1CCC2(CCC(Nc3nc(Nc4ccc5c(C)n(C)nc5c4)ncc3Cl)CC2)CC1 [Ex. 7] ?
stdout: 142

* * *

Target: JAK1 (h) (Homo sapiens)
Construct: purchased Millipore UK Ltd (assays run there as a service)
Sequence (P23458 whole entry): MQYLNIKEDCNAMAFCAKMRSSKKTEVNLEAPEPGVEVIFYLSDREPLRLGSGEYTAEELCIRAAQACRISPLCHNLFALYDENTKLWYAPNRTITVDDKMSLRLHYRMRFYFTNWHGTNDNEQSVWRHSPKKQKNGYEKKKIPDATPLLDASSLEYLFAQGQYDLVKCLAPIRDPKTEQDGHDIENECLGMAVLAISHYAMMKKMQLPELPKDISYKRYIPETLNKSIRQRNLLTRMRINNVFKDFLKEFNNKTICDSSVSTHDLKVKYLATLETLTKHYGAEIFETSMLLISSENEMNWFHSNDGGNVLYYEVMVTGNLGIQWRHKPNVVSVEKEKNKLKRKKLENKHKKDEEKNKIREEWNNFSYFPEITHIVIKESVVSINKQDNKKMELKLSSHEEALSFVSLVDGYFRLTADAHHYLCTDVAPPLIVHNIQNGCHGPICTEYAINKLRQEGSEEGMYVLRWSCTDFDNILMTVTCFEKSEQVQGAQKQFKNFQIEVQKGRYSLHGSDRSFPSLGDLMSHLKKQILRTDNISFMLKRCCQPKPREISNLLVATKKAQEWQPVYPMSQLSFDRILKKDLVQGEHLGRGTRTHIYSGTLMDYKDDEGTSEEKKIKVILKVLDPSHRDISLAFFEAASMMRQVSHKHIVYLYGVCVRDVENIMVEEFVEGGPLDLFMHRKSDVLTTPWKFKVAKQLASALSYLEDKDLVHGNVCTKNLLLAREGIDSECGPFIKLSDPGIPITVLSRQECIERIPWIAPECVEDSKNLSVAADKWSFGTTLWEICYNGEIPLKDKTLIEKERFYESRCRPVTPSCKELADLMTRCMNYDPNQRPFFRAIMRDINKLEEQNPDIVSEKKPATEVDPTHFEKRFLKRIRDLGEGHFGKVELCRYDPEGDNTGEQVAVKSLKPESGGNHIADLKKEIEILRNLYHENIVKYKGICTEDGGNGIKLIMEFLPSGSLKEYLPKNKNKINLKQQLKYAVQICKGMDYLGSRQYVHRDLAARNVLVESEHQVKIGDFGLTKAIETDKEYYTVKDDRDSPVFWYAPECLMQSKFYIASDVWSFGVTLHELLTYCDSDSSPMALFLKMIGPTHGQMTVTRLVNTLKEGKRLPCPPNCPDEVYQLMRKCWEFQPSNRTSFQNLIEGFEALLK
Assay: JAK1 kinase assay
Type: biochemical
Description: Kinase assays can be performed by measurement of incorporation of γ-^33P ATP into immobilized myelin basic protein (MBP). High binding white 384 well plates (Greiner) are coated with MBP (Sigma #M-1891) by incubation of 60 μL/well of 20 μg/mL MBP in Tris-buffered saline (TBS; 50 mM Tris pH 8.0, 138 mM NaCl, 2.7 mM KCl) for 24 h at 4° C. […] Each data point is measured in duplicate, and at least two duplicate assays are performed for each individual compound determination. […]
Readout kind: pIC50
pIC50 here: minus log base 10 of the concentration, concentration in moles per litre.

[
  {
    "Compound": "Cc1cnc(Nc2ccc3c(C)n(C)nc3c2)nc1NC1CCC2(CC1)CCN(C(=O)CC#N)CC2",
    "Assayed target": "JAK1 (h) (Homo sapiens)",
    "Test value": 9.00
  }
]

stdin: So what does the record say about pIC50 for `CC(=O)N1CCC2(CCC(Nc3nc(Nc4ccc5c(C)n(C)nc5c4)ncc3C)CC2)CC1` ?
stdout: 8.70

stdin: So what does the record say about pIC50 for `Cc1c2ccc(Nc3ncc(Cl)c(NC4CCC5(CC4)CCN(C(=O)CC#N)CC5)n3)cc2nn1C` ?
stdout: 9.22

stdin: So what does the record say about pIC50 for Cc1c2ccc(Nc3ncc(Cl)c(NC4CC5CN(C(=O)CC#N)CC5C4)n3)cc2nn1C (centres unmarked) ?
stdout: 9.00

stdin: So what does the record say about pIC50 for `CC(=O)N1CCC2(CCC(Nc3nc(Nc4ccc5c(C)n(C)nc5c4)ncc3Cl)CC2)CC1` ?
stdout: 9.05

* * *

Assay: Pharmacokinetics after intravenous and oral administration in rats
Format: in vivo
Conditions: rat, plasma, iv dosing, 1 mg/kg
Readout kind: half-life
State the result as a value with its unit after it.

The following compounds have reported results that may help.
[
  {
    "Compound": "Cc1cnc(Nc2ccc3c(C)n(C)nc3c2)nc1NC1CCC2(CC1)CCN(C(=O)CC#N)CC2",
    "Readout kind": "half-life",
    "Test value": "54 min"
  },
  {
    "Compound": "Cc1cnc(Nc2ccc3c(C)n(C)nc3c2)nc1NC1CC2CN(S(C)(=O)=O)CC2C1 (stereo not drawn)",
    "Readout kind": "half-life",
    "Test value": "43.8 min"
  }
]

// switching to the query compound
stdin: So what does the record say about half-life for Cc1c2ccc(Nc3nccc(N(C)C4CCC5(CC4)CCN(C(=O)CC#N)C5)n3)cc2nn1C (stereo not drawn) ?
stdout: 109 min

* * *

Test: Compound stability in rat liver microsomes
Assay type: in vitro ADME
Settings: pH 7.4; rat liver microsomes; in vivo CLint extrapolated
Below, each entry is listed with its recorded CLint scaled at 5 μM.
State the result as a value with its unit after it.

The following compounds have reported results that may help.
[
  {
    "Compound": "Cc1c2ccc(Nc3nccc(N(C)C4CCC5(CC4)CCN(C(=O)CC#N)C5)n3)cc2nn1C (centres unmarked) [Ex. 2]",
    "Test value": "6.72 L/h/kg"
  },
  {
    "Compound": "Cc1cnc(Nc2ccc3c(C)n(C)nc3c2)nc1NC1CC2CN(C(=O)CC#N)CC2C1 (centres unmarked) [Ex. 9]",
    "Test value": "2.83 L/h/kg"
  },
  {
    "Compound": "CC(=O)N1CCC2(CCC(Nc3nc(Nc4ccc5c(C)n(C)nc5c4)ncc3C)CC2)CC1 [Ex. 13]",
    "Test value": "5.35 L/h/kg"
  },
  {
    "Compound": "Cc1cnc(Nc2ccc3c(C)n(C)nc3c2)nc1NC1CCC2(CC1)CCN(C(=O)CC#N)CC2 [Ex. 12]",
    "Test value": "2.58 L/h/kg"
  },
  {
    "Compound": "CC(=O)N1CCC2(CCC(Nc3nc(Nc4ccc5c(C)n(C)nc5c4)ncc3Cl)CC2)CC1 [Ex. 7]",
    "Test value": "5.09 L/h/kg"
  }
]

stdin: So what does the record say about CLint scaled at 5 μM for Cc1c2ccc(Nc3ncc(Cl)c(NC4CCC5(CC4)CCN(C(=O)CC#N)CC5)n3)cc2nn1C [Ex. 6] ?
stdout: 3.64 L/h/kg

stdin: So what does the record say about CLint scaled at 5 μM for Cc1c2ccc(Nc3ncc(Cl)c(NC4CC5CN(C(=O)CC#N)CC5C4)n3)cc2nn1C (centres unmarked) [Ex. 4] ?
stdout: 5.9 L/h/kg

stdin: So what does the record say about CLint scaled at 5 μM for Cc1cnc(Nc2ccc3c(C)n(C)nc3c2)nc1NC1CC2CN(S(C)(=O)=O)CC2C1 (centres unmarked) [Ex. 10] ?
stdout: 2.94 L/h/kg

* * *

Assay: Compound stability in rat liver microsomes
Type: in vitro ADME
Conditions: pH 7.4; rat liver microsomes 0.5 mg protein/mL, compound 5 μM, NADPH, 37° C.; read-out: Rat T1/2
Readout kind: half-life at 5 μM (min)
Give just the numeric value; min need not be written.

[
  {
    "Compound": "Cc1cnc(Nc2ccc3c(C)n(C)nc3c2)nc1NC1CCC2(CC1)CCN(C(=O)CC#N)CC2 [Ex. 12]",
    "Readout kind": "half-life at 5 μM",
    "Test value": 57.8
  },
  {
    "Compound": "Cc1c2ccc(Nc3ncc(Cl)c(NC4CC5CN(C(=O)CC#N)CC5C4)n3)cc2nn1C (centres unmarked) [Ex. 4]",
    "Readout kind": "half-life at 5 μM",
    "Test value": 25.3
  },
  {
    "Compound": "Cc1c2ccc(Nc3ncc(Cl)c(NC4CCC5(CC4)CCN(C(=O)CC#N)CC5)n3)cc2nn1C [Ex. 6]",
    "Readout kind": "half-life at 5 μM",
    "Test value": 41
  },
  {
    "Compound": "CC(=O)N1CCC2(CCC(Nc3nc(Nc4ccc5c(C)n(C)nc5c4)ncc3C)CC2)CC1 [Ex. 13]",
    "Readout kind": "half-life at 5 μM",
    "Test value": 27.9
  },
  {
    "Compound": "Cc1cnc(Nc2ccc3c(C)n(C)nc3c2)nc1NC1CC2CN(C(=O)CC#N)CC2C1 (centres unmarked) [Ex. 9]",
    "Readout kind": "half-life at 5 μM",
    "Test value": 52.7
  }
]

stdin: So what does the record say about half-life at 5 μM for Cc1cnc(Nc2ccc3c(C)n(C)nc3c2)nc1NC1CC2CN(S(C)(=O)=O)CC2C1 (centres unmarked) [Ex. 10] ?
stdout: 50.7

stdin: So what does the record say about half-life at 5 μM for CC(=O)N1CCC2(CCC(Nc3nc(Nc4ccc5c(C)n(C)nc5c4)ncc3Cl)CC2)CC1 [Ex. 7] ?
stdout: 29.3

stdin: So what does the record say about half-life at 5 μM for Cc1c2ccc(Nc3nccc(N(C)C4CCC5(CC4)CCN(C(=O)CC#N)C5)n3)cc2nn1C (centres unmarked) [Ex. 2] ?
stdout: 22.2

* * *

Below, each entry is listed with its recorded half-life.
Experiment: Pharmacokinetics after intravenous and oral administration in rats
Type: in vivo
Conditions: rat, plasma, iv dosing, 1 mg/kg
State the result as a value with its unit after it.

The following compounds have reported results that may help.
[
  {
    "Compound": "CC(=O)N1CCC2(CCC(Nc3nc(Nc4ccc5c(C)n(C)nc5c4)ncc3Cl)CC2)CC1 [Ex. 7]",
    "half-life": "0.85 h"
  },
  {
    "Compound": "CC(=O)N1CCC2(CCC(Nc3nc(Nc4ccc5c(C)n(C)nc5c4)ncc3C)CC2)CC1 [Ex. 13]",
    "half-life": "0.64 h"
  },
  {
    "Compound": "Cc1c2ccc(Nc3ncc(Cl)c(NC4CC5CN(C(=O)CC#N)CC5C4)n3)cc2nn1C (stereo not shown) [Ex. 4]",
    "half-life": "1.36 h"
  }
]

// switching to the query compound
stdin: So what does the record say about half-life for Cc1c2ccc(Nc3ncc(Cl)c(NC4CCC5(CC4)CCN(C(=O)CC#N)CC5)n3)cc2nn1C [Ex. 6] ?
stdout: 1.31 h

* * *

Experiment: Pharmacokinetics after intravenous and oral administration in rats
Assay type: in vivo
Details: iv dosing, 1 mg/kg
Readout kind: Cl/F (L/h/kg)
Give just the numeric value; L/h/kg need not be written.

[
  {
    "Compound": "Cc1cnc(Nc2ccc3c(C)n(C)nc3c2)nc1NC1CC2CN(S(C)(=O)=O)CC2C1 (stereo not shown) [Ex. 10]",
    "Readout kind": "Cl/F",
    "U": "L/h/kg",
    "Test value": 1.99
  },
  {
    "Compound": "Cc1c2ccc(Nc3ncc(Cl)c(NC4CC5CN(C(=O)CC#N)CC5C4)n3)cc2nn1C (stereo not shown) [Ex. 4]",
    "Readout kind": "Cl/F",
    "U": "L/h/kg",
    "Test value": 2.17
  },
  {
    "Compound": "CC(=O)N1CCC2(CCC(Nc3nc(Nc4ccc5c(C)n(C)nc5c4)ncc3C)CC2)CC1 [Ex. 13]",
    "Readout kind": "Cl/F",
    "U": "L/h/kg",
    "Test value": 4.53
  }
]

// switching to the query compound
stdin: So what does the record say about Cl/F for CC(=O)N1CCC2(CCC(Nc3nc(Nc4ccc5c(C)n(C)nc5c4)ncc3Cl)CC2)CC1 [Ex. 7] ?
stdout: 1.47
